Target: Cytochrome P450 1B1 (Homo sapiens, UniProt Q16678)
Sequence (Q16678 whole entry): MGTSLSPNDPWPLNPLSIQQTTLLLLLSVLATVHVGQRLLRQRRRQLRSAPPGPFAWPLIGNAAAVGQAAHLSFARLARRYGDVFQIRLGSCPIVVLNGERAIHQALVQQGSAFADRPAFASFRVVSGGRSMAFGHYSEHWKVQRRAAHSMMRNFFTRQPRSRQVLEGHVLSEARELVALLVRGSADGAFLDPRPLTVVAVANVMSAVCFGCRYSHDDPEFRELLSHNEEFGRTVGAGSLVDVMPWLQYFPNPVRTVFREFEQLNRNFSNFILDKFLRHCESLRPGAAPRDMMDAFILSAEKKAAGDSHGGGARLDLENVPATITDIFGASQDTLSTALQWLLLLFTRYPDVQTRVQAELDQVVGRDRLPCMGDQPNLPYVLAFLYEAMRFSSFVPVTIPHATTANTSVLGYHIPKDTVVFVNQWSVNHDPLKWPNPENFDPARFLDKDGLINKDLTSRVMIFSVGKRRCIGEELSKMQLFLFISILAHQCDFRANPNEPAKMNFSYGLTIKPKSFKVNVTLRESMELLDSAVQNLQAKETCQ
Assay: Inhibition of human CYP1B1 expressed in yeast microsomal membranes using 7-ethoxyresorufin as substrate by fluorescence assay
Type: cell membranes
pIC50: −log10 of the molar value.
measured.property: pIC50

Q: Suppose we examine the compound CC(C)=CCc1cc(C2CC(=O)c3ccc(O)c(CC=C(C)C)c3O2)ccc1O (stereo unspecified) ; what pIC50 value has been reported?
Ans: < 4.70
